Recorded Score Lact. for the following compounds
Test system: primary astrocytes
Assay: Extracellular lactate quantification
Format: cell-based, mouse
Conditions: Appendix II, CDC54K library

[
  {
    "compound": "CC(=O)N1CCc2cc(S(=O)(=O)NCC(C)c3ccccc3)ccc21 (stereo not drawn)",
    "Score Lact.": 0.67
  },
  {
    "compound": "COc1cc(C)c(NC(=O)Cc2ccc(C)c(C)c2)cc1OC",
    "Score Lact.": 0.44
  },
  {
    "compound": "COc1cccc(C(CNc2nc(C(C)(C)C)nc3ccccc23)N(C)C)c1 (stereo not drawn)",
    "Score Lact.": "063"
  },
  {
    "compound": "CCCCn1c(CN(C)Cc2ccccc2)nc2c1c(=O)n(C)c(=O)n2C",
    "Score Lact.": 0.45
  },
  {
    "compound": "Cc1ccc(OCCn2c(C)nc3ccccc32)cc1",
    "Score Lact.": 0.51
  },
  {
    "compound": "COc1ccc(S(=O)(=O)Nc2ccc(N3CCCCS3(=O)=O)cc2)cc1F",
    "Score Lact.": 0.62
  }
]

----------
Tested on: primary astrocytes
Assay: Extracellular lactate quantification
Assay type: cell-based, mouse
Conditions: Appendix I, secondary screening: extracellular lactate

[
  {
    "compound": "COc1cccc(CNc2ncnc3c2CCC3)c1",
    "Score_LACTATE": 0.3283
  },
  {
    "compound": "Cc1cccc([N+]2=C3SCCCN3C(O)(c3ccc(Cl)cc3)C2)c1.[Br-] (stereo not drawn)",
    "Score_LACTATE": 0
  },
  {
    "compound": "O=S(=O)(Nc1ccc(F)c(Cl)c1)c1ccc2ccccc2c1",
    "Score_LACTATE": 0.5258
  },
  {
    "compound": "COc1ccc(C2(O)C[N+](c3cc(C)ccc3C)=C3SCCCN32)c(F)c1 (stereo not drawn)",
    "Score_LACTATE": 0
  },
  {
    "compound": "Cc1cccc(NS(=O)(=O)c2cc(-c3ccnn3C)cs2)c1",
    "Score_LACTATE": 0.7362
  },
  {
    "compound": "OC1(c2ccccc2)C[N+](c2ccc(Cl)cc2)=C2CCCCN21.[Br-] (stereo not drawn)",
    "Score_LACTATE": 0
  },
  {
    "compound": "O=C(c1ccc(Cl)s1)N1CCC(Nc2ncnc3c2CCC3)C1 (stereo not drawn)",
    "Score_LACTATE": 0.8854
  },
  {
    "compound": "CCc1ccc(S(=O)(=O)N2CCSC2c2ccc(OC)c(OC)c2)cc1 (stereo not drawn) [4052-4304]",
    "Score_LACTATE": 0.4335
  },
  {
    "compound": "Cc1nc(-c2cccc(NS(=O)(=O)c3ccc(N4CCCC4=O)cc3)c2)cs1",
    "Score_LACTATE": 0.7496
  },
  {
    "compound": "Cc1nc2ccc(NS(=O)(=O)c3cccc(F)c3)cc2s1",
    "Score_LACTATE": 0.9088
  },
  {
    "compound": "COc1cc(C)c(Cl)cc1S(=O)(=O)NCc1ccncc1",
    "Score_LACTATE": 0.7229
  },
  {
    "compound": "CC1c2ccsc2CCN1c1ncnc2sccc12 (stereo not drawn)",
    "Score_LACTATE": 0.7
  },
  {
    "compound": "O=C(c1ccco1)N1CCCn2nc(-c3ccc(C(F)(F)F)cc3)cc2C1",
    "Score_LACTATE": 0.2896
  },
  {
    "compound": "Fc1ccc(Nc2nc(N3CCOCC3)c3ccccc3n2)cc1",
    "Score_LACTATE": 0
  },
  {
    "compound": "Cc1ccc(CN2CCN(c3ncnc4c3CCC4)CC2)o1",
    "Score_LACTATE": 0.8045
  },
  {
    "compound": "O=C(NC1CC1)c1cccc(NS(=O)(=O)c2ccc(N3CCCC3=O)cc2)c1",
    "Score_LACTATE": 0.3601
  },
  {
    "compound": "CCc1nc(-c2csc(S(=O)(=O)NCc3ccc4c(c3)OCO4)c2)no1",
    "Score_LACTATE": 0.6179
  },
  {
    "compound": "COc1ccc(C2SCCN2S(=O)(=O)c2ccc(C)c(C)c2)cc1OC (stereo not drawn)",
    "Score_LACTATE": 0
  },
  {
    "compound": "O=S(=O)(Nc1ccc2[nH]ncc2c1)c1ccc(C(F)(F)F)cc1",
    "Score_LACTATE": 1.354
  },
  {
    "compound": "CSc1cccc(NS(=O)(=O)c2ccc3onc(C(=O)N4CCCC4)c3c2)c1",
    "Score_LACTATE": 0.9122
  },
  {
    "compound": "N#Cc1ccc(C(=O)N2CCC(Nc3ncnc4c3CCC4)C2)cc1 (stereo not drawn)",
    "Score_LACTATE": 0.3005
  }
]

----------
Test system: primary astrocytes
Assay: Extracellular lactate quantification
Assay type: cell-based, mouse
Conditions: Appendix II, CDC54K library
Lab note - cut at 0.5 for Score Lact.: Y if strictly below, N if not.

[
  {
    "compound": "CN(C)S(=O)(=O)c1cccc(C(=O)Nc2ccc(Oc3ccccc3)cc2)c1",
    "assigned label": "N"
  },
  {
    "compound": "CC1(C)Cc2cccc(OCC(O)CN3CCc4ccccc4C3)c2O1 (centres unmarked)",
    "assigned label": "N"
  },
  {
    "compound": "CCOc1ccc(C2=CCc3c2ncn(Cc2ccncc2)c3=O)cc1OCC",
    "assigned label": "N"
  },
  {
    "compound": "CCc1ccc(S(=O)(=O)Nc2c(C)nn(C)c2C)cc1",
    "assigned label": "N"
  },
  {
    "compound": "N#Cc1cc(C(=O)c2cc(I)ccc2O)cn(-c2ccc(I)c(Cl)c2)c1=O",
    "assigned label": "Y"
  },
  {
    "compound": "C1CCCC(NC2=NCCCNC23CCCCC3)CC1",
    "assigned label": "N"
  },
  {
    "compound": "O=S(=O)(Nc1ccc(Cl)cc1)c1ccc(F)c(Cl)c1",
    "assigned label": "N"
  },
  {
    "compound": "Cc1c(O)ccc2c(CN(C)CC3COc4ccccc4O3)cc(=O)oc12 (centres unmarked)",
    "assigned label": "Y"
  },
  {
    "compound": "C1=Cc2ncnc(NCc3ccc4c(c3)OCO4)c2C1",
    "assigned label": "N"
  },
  {
    "compound": "CN1c2ccccc2C(=O)NC1c1ccc(Cl)c(Cl)c1 (centres unmarked)",
    "assigned label": "Y"
  },
  {
    "compound": "CCc1ccc(NC(=O)Cc2cn(C)c3ncccc23)cc1",
    "assigned label": "N"
  }
]

----------
System: primary astrocytes
Assay: Intracellular glycogen quantification
Format: cell-based, mouse
Conditions: CDC54K hits, 10 μM, 3 h
endpoint name: Glycogen (statistical significance of glycogen degradation)

[
  {
    "compound": "c1ccc2c(c1)CCN(c1ncnc3sccc13)C2 [T0517-8250]",
    "recorded value": "ns"
  },
  {
    "compound": "CCc1ccc(S(=O)(=O)Nc2ccc3[nH]ncc3c2)cc1 [T5599014]",
    "recorded value": "ns"
  },
  {
    "compound": "Cc1nc2ccc(NS(=O)(=O)c3cccc(F)c3)cc2s1 [T6937001]",
    "recorded value": "ns"
  },
  {
    "compound": "O=C1CCCN1c1ccc(S(=O)(=O)Nc2cccc(/C=C/c3ccccn3)c2)cc1 [T5644989]",
    "recorded value": "** (** p<0.01)"
  },
  {
    "compound": "CCn1nccc1-c1csc(S(=O)(=O)Nc2ccc(Cl)cc2F)c1 [L924-1031]",
    "recorded value": "** (** p<0.01)"
  },
  {
    "compound": "CC(=O)N1CCc2sc(S(=O)(=O)N3CCN(c4ccccc4C)CC3)cc2C1 [P025-0159]",
    "recorded value": "ns"
  },
  {
    "compound": "CCc1nc(-c2csc(S(=O)(=O)NCc3ccc4c(c3)OCO4)c2)no1 [L287-0468]",
    "recorded value": "** (** p<0.01)"
  },
  {
    "compound": "Cc1ccccc1NC(=O)C1CCCN(c2ncnc3oc(C)c(C)c23)C1 (stereo not drawn) [F228-0422]",
    "recorded value": "** (** p<0.01)"
  }
]

----------
Test system: primary astrocytes
Experiment: Extracellular lactate quantification
Type: cell-based, mouse
Details: Appendix I, secondary screening: extracellular lactate
Score_LACTATE overview
endpoint name: Score_LACTATE

[
  {
    "compound": "COc1ccc(C2(O)C[N+](c3ccccc3C)=C3CCCCCN32)cc1OC (centres unmarked)",
    "recorded value": 0
  },
  {
    "compound": "Cn1nccc1C(=O)N1CCC(Nc2ncnc3c2CCC3)C1 (centres unmarked)",
    "recorded value": 0.3027
  },
  {
    "compound": "COc1ccccc1[N+]1=C2CCCCCN2C(O)(c2ccccc2)C1 (centres unmarked)",
    "recorded value": 1.051
  },
  {
    "compound": "COc1ccc(Nc2nc(N3CCOCC3)c3ccccc3n2)cc1",
    "recorded value": 0.2892
  },
  {
    "compound": "CC(=O)N1CCc2sc(S(=O)(=O)N3CCN(c4ccccc4C)CC3)cc2C1",
    "recorded value": 0.9232
  },
  {
    "compound": "COc1ccccc1[N+]1=C2CCCCCN2C(O)(c2ccc(F)cc2)C1.[Br-] (centres unmarked)",
    "recorded value": 1.547
  },
  {
    "compound": "CCn1nccc1-c1csc(S(=O)(=O)Nc2ccccc2OC)c1",
    "recorded value": 0.9106
  },
  {
    "compound": "COc1ccc(C)cc1NS(=O)(=O)c1cc(-c2ccnn2C)cs1",
    "recorded value": 0.9168
  },
  {
    "compound": "CC(C)OCCCNc1ncnc2c1CCC2",
    "recorded value": 0
  },
  {
    "compound": "CCn1nccc1-c1csc(S(=O)(=O)Nc2ccc(Cl)cc2F)c1",
    "recorded value": 1.632
  },
  {
    "compound": "CC(Nc1ncnc2sccc12)c1ccccn1 (centres unmarked)",
    "recorded value": 0.5883
  },
  {
    "compound": "COc1ccc(C2SCCN2S(=O)(=O)c2cccc(C)c2)cc1OC (centres unmarked)",
    "recorded value": 0.3773
  },
  {
    "compound": "Cc1nc2ccc(NS(=O)(=O)c3ccccc3F)cc2s1",
    "recorded value": 0.3825
  },
  {
    "compound": "O=C(Cc1cccc(F)c1)N1CCC(Nc2ncnc3c2CCC3)C1 (centres unmarked)",
    "recorded value": 0.413
  },
  {
    "compound": "c1ccc2c(c1)CCN(c1ncnc3sccc13)C2",
    "recorded value": 0.9269
  },
  {
    "compound": "Cc1oc2ncnc(N3CCCC(C(=O)NCc4cccnc4)C3)c2c1C (centres unmarked)",
    "recorded value": 0.8985
  },
  {
    "compound": "Cc1cccc([N+]2=C3CCCCCN3C(O)(c3ccc(F)cc3)C2)c1 (centres unmarked)",
    "recorded value": 0.6219
  },
  {
    "compound": "CC(=O)c1cccc(NC(=O)C(C)Sc2ncnc3ccccc23)c1 (centres unmarked)",
    "recorded value": 0.7518
  },
  {
    "compound": "Cc1ccsc1C(=O)NC1CCN(c2ncnc3c2CCC3)C1 (centres unmarked)",
    "recorded value": 0.5477
  },
  {
    "compound": "COc1ccc(C2(O)C[N+](c3ccccc3C)=C3CCCCN32)cc1.[Br-] (centres unmarked)",
    "recorded value": 0
  },
  {
    "compound": "Cc1ccc(CNS(=O)(=O)c2cc(-c3noc(C4CCCC4)n3)cs2)cc1",
    "recorded value": 0.8035
  },
  {
    "compound": "c1ccc(C(Nc2ncnc3sccc23)C2CC2)cc1 (centres unmarked)",
    "recorded value": 1.857
  },
  {
    "compound": "O=C1CCCN1c1ccc(S(=O)(=O)Nc2cccc(/C=C/c3ccccn3)c2)cc1",
    "recorded value": 0.7859
  },
  {
    "compound": "O=C(c1noc2ccc(S(=O)(=O)Nc3cccc(F)c3)cc12)N1CCCC1",
    "recorded value": 0.424
  },
  {
    "compound": "COc1ccc(OC)c([N+]2=C3CCCCCN3C(O)(c3ccc(C)cc3)C2)c1 (centres unmarked)",
    "recorded value": 0.6277
  },
  {
    "compound": "CN(C)Cc1cccc(CNc2ncnc3sccc23)c1",
    "recorded value": 1.033
  },
  {
    "compound": "COc1ccccc1[N+]1=C2CCCCN2C(O)(c2ccc(F)cc2)C1.[Br-] (centres unmarked)",
    "recorded value": 1.585
  },
  {
    "compound": "CCc1ccc(S(=O)(=O)N2CCSC2c2ccc(OC)c(OC)c2)cc1 (centres unmarked) [T5463586]",
    "recorded value": 0.3936
  },
  {
    "compound": "O=S(=O)(Nc1ccc(O)c(Cl)c1)c1ccc2ccccc2c1",
    "recorded value": 0
  }
]
